Quick reference for switch fluorescence ratio among some sequences
Tested on: ATP;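 also: ATP exposure 15 min at 22 °C before imaging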
ASSAY SUMMARY: switch fluorescence ratio, 500 uM ATP over buffer (Cy3 cluster intensity, sum of 5 cycles each) (fold (ratio)); higher = stronger signal-on switching upon ATP binding; sequences stand for … in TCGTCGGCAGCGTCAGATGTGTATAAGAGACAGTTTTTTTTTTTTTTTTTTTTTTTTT…TC
ASSAY SETUP: aptamer strand: ATP DNA aptamer (quencher-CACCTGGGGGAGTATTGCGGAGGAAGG + anchor), 100 nM annealed; ATP concentration: 500 uM
MEASURED PROPERTY: switch fluorescence ratio

- ACCTGGGGAT: 1.03
- GGGTATGATG: 1.01
- GAGTACTCCT: 1.04
- GACTGTACTA: 1.48
- AGGTTGGGGT: 1.01
- AATATATGT: 1.02
- GAATATAGTT: 0.995
- ACGATCAGGA: 1.03
- CTGGGTATGA: 1.01
- TCGGAGACTC: 1.05
- TATAATTGGG: 0.992
- AAACATAGTG: 0.987
- CTAGAGGGAT: 1.02
- TCTGGTTGAG: 1.02
- TGATTTCAGG: 0.982
- GCAAGCTGCA: 1.02
- AAACTGAATC: 1
- AACGTCTTTG: 0.998
- AGCCAGAGAC: 1.07
- AGAGCGAGGA: 0.986
- GTTTTTATTT: 0.976

---

Test system: ATP;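 also: ATP exposure 15 min at 22 °C before imaging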
ASSAY SUMMARY: switch fluorescence ratio, 500 uM ATP over buffer (Cy3 cluster intensity, sum of 5 cycles each) (fold (ratio)); higher = stronger signal-on switching upon ATP binding; sequences stand for … in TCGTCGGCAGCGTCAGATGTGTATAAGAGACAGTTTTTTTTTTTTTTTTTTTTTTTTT…TC
ASSAY SETUP: aptamer strand: ATP DNA aptamer (quencher-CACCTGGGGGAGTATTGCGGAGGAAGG + anchor), 100 nM annealed; ATP concentration: 500 uM
MEASURED PROPERTY: switch fluorescence ratio

- CAGGGCGGGA: 0.936
- GGAGTCTGG: 1.01
- TTTACTTTGC: 1.48
- CATATCTGTT: 1.02
- CTTTGTATTC: 1.04
- GGTAGAATTA: 0.979
- TTGTTTGTGA: 0.992
- TTGGATAGCG: 0.982
- TTTTTATAT: 0.983
- TTGGGAGGTG: 1.05
- ATGCGTAGGT: 0.988
- ACTATTAAT: 1.02
- ACTGGATGCT: 0.995
- GCGGAAAGAA: 0.962
- TGCCGGACCG: 1.02
- ATCAAAAACG: 1.01
- AAATGGTCGA: 0.974
- CACGGCCGGA: 1.03
- AAATTCGGGG: 0.959
- GATGCAGGCC: 0.892
- GAGTTAGTTA: 0.989
- GTCGGGGTTA: 0.989
- TTCTTTGGGT: 0.947
- ATGTGGAATG: 0.994
- GCTATCTGCT: 0.976
- TCGTGGGGAG: 0.982
- GGGGGGCCGC: 1.03
- TTTTGGTTCG: 0.987
- GGGCAAGCTG: 1.04
- TTATTTCCGG: 1.01
- TGGGTTTCCT: 0.987
- CGTTGGAAGG: 0.985
- GGTGGGTGTA: 0.957
- TTCTGGATCC: 1.02
- ATTTATGAGG: 1.01
- TGTGTAATTG: 1.01
- CTAATTCTG: 0.98
- TTGCGCTCGT: 0.993
- TTTTGGTACC: 1.02
- ACACAATCAT: 1.02
- GTTGGGCTAT: 0.992
- TTGTCGGTCT: 0.972
- GGCAGGTGTT: 1.73
